# Target desc: Recombinant human PKC-theta (His-tagged 362-706) (Homo sapiens, UniProt Q04759)
# Construct: Recombinant human PKC-theta (His-tagged 362-706); His
# Sequence (Q04759 362-706): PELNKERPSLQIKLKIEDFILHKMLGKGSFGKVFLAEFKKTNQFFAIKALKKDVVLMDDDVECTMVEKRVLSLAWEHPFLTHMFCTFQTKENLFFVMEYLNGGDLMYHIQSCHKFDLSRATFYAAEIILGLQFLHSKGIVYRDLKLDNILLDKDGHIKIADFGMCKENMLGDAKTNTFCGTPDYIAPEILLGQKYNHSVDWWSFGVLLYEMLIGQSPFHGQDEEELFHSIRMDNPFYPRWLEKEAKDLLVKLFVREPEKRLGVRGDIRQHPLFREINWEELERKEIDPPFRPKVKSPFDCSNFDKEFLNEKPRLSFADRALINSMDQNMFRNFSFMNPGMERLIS
# Experimental protocol: PKC-theta inhibition assay (HTRF KinEASE kit)
# Assay type: biochemical
# Condition summary: ATP 6.5 μM; STK substrate 525 nM; binned A to H; read-out: PKC-theta HTRF pIC50 (binned) (converted)

Molecule: O=C1Nc2nccc(-c3cc(F)cc(N4CCNCC4)c3)c2C12CCCC2 [Example 36]
IC50: 10 to 31.6 nM
--
Molecule: CC1(C)C(=O)Nc2ncc(C#N)c(-c3cc(F)cc(N4CCNCC4)c3)c21 [Example 64]
IC50: 316 to 1000 nM
--
Molecule: C[C@@H]1CCNCCN1c1cc(C(F)(F)F)cc(-c2ccnc3c2C(C)(C)C(=O)N3)n1 [Example 188]
IC50: 3.16 to 10 nM
--
Molecule: CC[C@]1(C)C(=O)Nc2nccc(-c3cc(C(C)(F)F)cc(N4CCCNCC4)n3)c21 (single isomer, unassigned) [Example 205]
IC50: 3.16 to 10 nM
--
Molecule: CCC1(C)C(=O)Nc2nccc(-c3cc(F)cc(N4CCNCC4)c3)c21 (stereo not shown) [Example 33]
IC50: 31.6 to 100 nM
--
Molecule: CC1(C)C(=O)Nc2nccc(-c3cccc(N(CC4COC4)C4CCNCC4)c3)c21 [Example 41]
IC50: 31.6 to 100 nM
--
Molecule: CC1(Cc2ccccc2)C(=O)Nc2nccc(-c3cccc(N4CCNCC4)c3)c21 (stereo not shown) [Example 49]
IC50: 316 to 1000 nM
--
Molecule: CC[C@]1(O)C(=O)Nc2nccc(-c3cc(C(F)(F)F)cc(N4CCNC[C@H]4C)n3)c21 (single isomer, unassigned) [Example 167]
IC50: 100 to 316 nM
--
Molecule: CC[C@H]1CN(c2cccc(-c3ccnc4c3C(C)(CC)C(=O)N4)n2)CCN1 (stereo partly shown) [Example 148]
IC50: 10 to 31.6 nM
--
Molecule: CC1(C)C(=O)Nc2nccc(-c3cccc(N4CCNCC4)c3)c21 [Example 23]
IC50: 100 to 316 nM
--
Molecule: CC[C@@]1(O)C(=O)Nc2nccc(-c3cc(Cl)cc(N4CCN[C@@H](C)C4)n3)c21 (single isomer, unassigned) [Example 162]
IC50: 100 to 316 nM
--
Molecule: CC1C(=O)Nc2nccc(-c3cccc(CN(C)C)c3)c21 (stereo not shown) [Example 22]
IC50: 316 to 1000 nM
--
Molecule: COC[C@@H]1CN(c2cc(C(F)(F)F)cc(-c3ccnc4c3C(C)(C)C(=O)N4)n2)CCN1 [Example 120]
IC50: 10 to 31.6 nM
--
Molecule: CC[C@@]1(C)C(=O)Nc2nccc(-c3cc(Cl)cc(N4CCNC[C@H]4C)n3)c21 (single isomer, unassigned) [Example 164]
IC50: 1 to 3.16 nM
--
Molecule: CC[C@@]1(O)C(=O)Nc2nccc(-c3cc(C(F)(F)F)cc(N4CCNC[C@H]4C)n3)c21 (single isomer, unassigned) [Example 166]
IC50: 1 to 3.16 nM
--
Molecule: CC1(C)CN(c2cc(Cl)cc(-c3ccnc4c3[C@](C)(O)C(=O)N4)n2)CCN1 (single isomer, unassigned) [Example 133]
IC50: 1 to 3.16 nM
--
Molecule: C[C@@H]1CNCCN1c1cc(F)cc(-c2ccnc3c2C(C)(O)C(=O)N3)c1 (stereo partly shown) [Example 59]
IC50: 3.16 to 10 nM
--
Molecule: C[C@@H]1CN(c2ccc(Cl)c(-c3ccnc4c3[C@](C)(O)C(=O)N4)c2)CCN1 [Example 106]
IC50: 316 to 1000 nM
--
Molecule: C[C@@]1(O)C(=O)Nc2nccc(-c3cc(C(F)(F)F)cc(N4CC5CCC4CN5)n3)c21 (single isomer, unassigned) [Example 138]
IC50: 10 to 31.6 nM
--
Molecule: CC[C@H]1CN(c2cc(C(F)(F)F)cc(-c3ccnc4c3C(C)(O)C(=O)N4)n2)CCN1 (stereo partly shown) [Example 71]
IC50: 1 to 3.16 nM
--
Molecule: C[C@@]1(O)C(=O)Nc2nccc(-c3cc(C(F)(F)F)cc(N4CCNC5CC54)n3)c21 (single isomer, unassigned) [Example 96]
IC50: 3.16 to 10 nM
--
Molecule: C[C@H]1CNCCN1c1cc(C(F)(F)F)cc(-c2ccnc3c2[C@](C)(O)C(=O)N3)n1 (single isomer, unassigned) [Example 93]
IC50: 10 to 31.6 nM

* * *

# Target desc: Recombinant human PKC-delta (His-tagged 345-676) (Homo sapiens, UniProt Q05655)
# Construct: PKC-delta (His-tagged 345-676); His
# Sequence (Q05655 345-676): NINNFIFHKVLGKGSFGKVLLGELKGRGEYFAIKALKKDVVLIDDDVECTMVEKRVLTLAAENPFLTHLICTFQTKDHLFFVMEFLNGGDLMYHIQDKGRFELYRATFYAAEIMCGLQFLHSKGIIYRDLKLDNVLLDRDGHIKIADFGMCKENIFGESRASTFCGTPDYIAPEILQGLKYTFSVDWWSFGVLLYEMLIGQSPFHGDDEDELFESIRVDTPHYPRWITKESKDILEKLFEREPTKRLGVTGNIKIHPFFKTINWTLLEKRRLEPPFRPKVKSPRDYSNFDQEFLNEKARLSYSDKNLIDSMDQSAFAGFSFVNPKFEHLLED
# Experimental protocol: PKC-delta inhibition assay (HTRF KinEASE kit)
# Type: biochemical
# Condition summary: ratio, PKC-theta vs PKC-delta HTRF
Items are presented alongside their recorded PKC-theta/PKC-delta selectivity.

Molecule: CC1(O)C(=O)Nc2nccc(-c3cc(Cl)cc(N4CCNCC4)c3)c21 (centres unmarked)
PKC-theta/PKC-delta selectivity: 9

Molecule: C[C@@]1(O)C(=O)Nc2nccc(-c3cc(C(F)(F)F)cc(N4CCNC(CF)C4)n3)c21 (single isomer, unassigned)
PKC-theta/PKC-delta selectivity: 29

Molecule: O=c1[nH]c2nccc(-c3cc(N4CCNCC4)ccn3)c2[nH]1
PKC-theta/PKC-delta selectivity: 1

Molecule: CC1(C)C(=O)Nc2nccc(-c3cc(C(F)(F)F)cc(N4CCN[C@H]5COC[C@H]54)n3)c21
PKC-theta/PKC-delta selectivity: 31

Molecule: CC1(O)C(=O)Nc2nccc(-c3cc(F)cc(N4CCNCC4)c3)c21 (centres unmarked)
PKC-theta/PKC-delta selectivity: 3

Molecule: CC1(C)C(=O)Nc2nccc(-c3cc(C(F)(F)F)cc(N4CCNCC4)n3)c21
PKC-theta/PKC-delta selectivity: 13

Molecule: CC[C@@H]1CNCCN1c1cc(Cl)cc(-c2ccnc3c2[C@](C)(O)C(=O)N3)n1 (single isomer, unassigned)
PKC-theta/PKC-delta selectivity: 1

Molecule: CC[C@H]1CN(c2ccc(Cl)c(-c3ccnc4c3[C@](C)(O)C(=O)N4)n2)CCN1 (single isomer, unassigned)
PKC-theta/PKC-delta selectivity: 5

Molecule: CC[C@]1(C)C(=O)Nc2nccc(-c3cc(C(F)(F)F)cc(N4CCN[C@@H](C)C4)n3)c21 (single isomer, unassigned)
PKC-theta/PKC-delta selectivity: 13

Molecule: C[C@@]1(O)C(=O)Nc2nccc(-c3cc(C(F)(F)F)cc(N4CC[C@H]5OCCN[C@@H]5C4)n3)c21 (single isomer, unassigned)
PKC-theta/PKC-delta selectivity: 21

Molecule: CC1(C)C(=O)Nc2nccc(-c3cc(C(F)(F)F)cc(N4CCNC[C@H]4CO)n3)c21
PKC-theta/PKC-delta selectivity: 12

Molecule: C[C@@H]1CN(c2ccc(Cl)c(-c3ccnc4c3[C@](C)(O)C(=O)N4)c2)CCN1
PKC-theta/PKC-delta selectivity: 10

Molecule: CC1(C)C(=O)Nc2nccc(-c3cc(C(F)(F)F)cc(N4CCN[C@@H](CO)C4)n3)c21
PKC-theta/PKC-delta selectivity: 20

Molecule: CC1(C)C(=O)Nc2nccc(-c3cc(Cl)cc(N4CCNCC4C(F)F)n3)c21 (centres unmarked)
PKC-theta/PKC-delta selectivity: 9

Molecule: CCC1(C)C(=O)Nc2nccc(-c3cc(F)cc(N4CCNCC4)c3)c21 (centres unmarked)
PKC-theta/PKC-delta selectivity: 2

Molecule: C[C@@H]1CN(c2cccc(-c3ccnc4[nH]c(=O)[nH]c34)c2)C[C@H](C)N1
PKC-theta/PKC-delta selectivity: 4

Molecule: O=c1[nH]c2nccc(-c3cc(F)cc(N4CCNCC4)c3)c2[nH]1
PKC-theta/PKC-delta selectivity: 2

Molecule: CCC1(C)C(=O)Nc2nccc(-c3cc(C(F)(F)F)cc(N4CCNC[C@H]4C)n3)c21 (some centres unmarked)
PKC-theta/PKC-delta selectivity: 23

Molecule: CC(C)[C@H]1CN(c2cccc(-c3ccnc4c3C(C)(C)C(=O)N4)c2)CCN1
PKC-theta/PKC-delta selectivity: 2

Molecule: CC1C(=O)Nc2nccc(-c3cccc(CN4CCNCC4)c3)c21 (centres unmarked)
PKC-theta/PKC-delta selectivity: 2

* * *

# Target desc: Recombinant human PKC-delta (His-tagged 345-676) (Homo sapiens, UniProt Q05655)
# Construct: PKC-delta (His-tagged 345-676); His
# Experimental protocol: PKC-delta inhibition assay (HTRF KinEASE kit)
# Assay type: biochemical
# Condition summary: ratio, PKC-theta vs PKC-delta HTRF
Metric: PKC-theta/PKC-delta selectivity

Compound: CC[C@]1(O)C(=O)Nc2nccc(-c3cc(Cl)cc(N4CCN[C@@H](C)C4)n3)c21 (single isomer, unassigned)
Metric: PKC-theta/PKC-delta selectivity
Observed measurement: 10
--
Compound: CC1(C)C(=O)Nc2nccc(-c3cc(C(F)F)cc(N4CCNCC4)n3)c21
Metric: PKC-theta/PKC-delta selectivity
Observed measurement: 10
--
Compound: CC1(C)CN(c2cc(Cl)cc(-c3ccnc4c3[C@](C)(O)C(=O)N4)n2)CCN1 (single isomer, unassigned)
Metric: PKC-theta/PKC-delta selectivity
Observed measurement: 10
